Please go through the items and note down their pIC50.
Study Target: Human immunodeficiency virus type 1 reverse transcriptase (Human immunodeficiency virus 1, UniProt Q72547)
Assay Info: Inhibition of recombinant wild type HIV-1 reverse transcriptase using DNA/RNA as substrate incubated for 40 mins by Pico-green dye based spectrofluorometric analysis
Answers are plain numbers, as −log10 of the molar value.

Smiles Data: COc1cc(-c2ccc(C#N)cc2)ccc1Oc1nc(Nc2ccc(C#N)cc2)ncc1C(N)=O
pIC50: 7.55

Smiles Data: Cc1cc(-c2ccc(C#N)cc2)cc(C)c1Oc1nc(Nc2ccc(C#N)cc2)ncc1C(=O)NC1CCCCC1
pIC50: 6.48

I need pIC50 for every entry listed below, if you could help.
1. N#Cc1ccc(Nc2ncc(C(N)=O)c(Oc3ccc(-c4ccc(C#N)cc4)cc3Cl)n2)cc1
2. Cc1cc(-c2ccc(C#N)cc2)cc(C)c1Oc1nc(Nc2ccc(C#N)cc2)ncc1C(=O)NCCCO
3. CCCNC(=O)c1cnc(Nc2ccc(C#N)cc2)nc1Oc1c(C)cc(-c2ccc(C#N)cc2)cc1C
4. CONC(=O)c1cnc(Nc2ccc(C#N)cc2)nc1Oc1c(C)cc(-c2ccc(C#N)cc2)cc1C
5. Cc1cc(-c2ccc(C#N)cc2)cc(C)c1Oc1nc(Nc2ccc(C#N)cc2)ncc1C(=O)NC1CCCC1
6. CCNC(=O)c1cnc(Nc2ccc(C#N)cc2)nc1Oc1c(C)cc(-c2ccc(C#N)cc2)cc1C
7. Cc1cc(-c2ccc(C#N)cc2)cc(C)c1Oc1nc(Nc2ccc(C#N)cc2)ncc1C(=O)NCCO

7.55
7.15
6.72
7.33
6.48
6.87
7.26

I need pIC50 for every entry listed below, if you could help.
1. Cc1cc(-c2ccc(C#N)cc2)ccc1Oc1nc(Nc2ccc(C#N)cc2)ncc1C(N)=O
2. Cc1cc(-c2ccc(C#N)cc2)cc(C)c1Oc1nc(Nc2ccc(C#N)cc2)ncc1C(=O)NC(C)C

[7.72, 6.70]
